system: Candida glabrata ATCC 66032; assay: MIC broth microdilution; assay type: cell-based; conditions: C. glabrata; Table S1
# Selectivity Index (HC50/MIC) per entry
// keep it numeric: no unit symbol after the value

The cases that follow already have their Selectivity Index (HC50/MIC) on record.
| COMPOUND | TESTED ON | Selectivity Index (HC50/MIC) |
| --- | --- | --- |
| CCCCCCCCCCCCNC(=O)C(N)Cc1ccccc1 (stereo not shown) [PNHC12] | Candida glabrata ATCC 66032 | 0.6 |
| CCCCCCCCCCCCNC(=O)C(CCCNC(=N)N)NC(=O)C(N)Cc1ccccc1 (stereo not shown) [PANHC12] | Candida glabrata ATCC 66032 | 0.8 |
| CCCCCCCCCCCC(=O)NC(CCCNC(=N)N)C(=O)OC (stereo not shown) [C12AM] | Candida glabrata ATCC 66032 | 7 |

Now let's try a different one.
# Selectivity Index (HC50/MIC) lookup, item CCCCCCCCCCCCNC(=O)C(CCCNC(=N)N)NC(=O)C(N)Cc1c[nH]c2ccccc12 (stereo not shown) [TANHC12]
0.12

###

test: Cytotoxicity, Neutral Red Uptake (NRU) assay; format: cell-based, Swiss mouse; conditions: mouse, 3T3 fibroblast cells, 3T3, NRU, across the full concentration range, read-out: cell viability
PROPERTY NAME: viability at 24 h (%)
Reply numerically in %, unit not repeated.

# viability at 24 h lookup, item CCCCCCCCCCCC(=O)NC(CCCNC(=N)N)C(=O)OC (stereo not shown) [C12AM]
100

###

system: Cyberlindnera jadinii ATCC 60459 (C. jardinii); assay: MIC broth microdilution; type: cell-based; details: Williopsis jadinii, ATCC60459; C. jardinii; value in parentheses; read-out: MIC
MIC vs 60 µM: less than gives yes (1); not less than gives no (0).

Some entries whose results are on file:
| MOLECULE | CLASSIFICATION |
| --- | --- |
| CCCCCCCCCCCCCCNC(=O)C(CCCNC(=N)N)NC(=O)C(N)Cc1c[nH]c2ccccc12 (stereo not drawn) | yes (1) |
| CCCCCCCCCCNC(=O)C(CCCNC(=N)N)NC(=O)C(N)Cc1ccccc1 (stereo not drawn) | no (0) |
| CCCCCCCCCCNC(=O)C(CCCNC(=N)N)NC(=O)C(N)Cc1c[nH]c2ccccc12 (stereo not drawn) | no (0) |
| CCCCCCCCNC(=O)C(CCCNC(=N)N)NC(=O)C(N)Cc1ccccc1 (stereo not drawn) | no (0) |
| CCCCCCCCCCCCCCNC(=O)C(CCCNC(=N)N)NC(=O)C(N)Cc1ccccc1 (stereo not drawn) | yes (1) |

Please find the next molecule below.
Lab note: confirm whether the reported MIC for this molecule is below 60 µM, equality not counting. molecule: CCCCCCCCCCCCNC(=O)C(CCCNC(=N)N)NC(=O)C(N)Cc1ccccc1 (stereo not drawn)
yes (1)

###

system: Candida albicans ATCC 90028; assay: MIC broth microdilution; assay type: cell-based; details: Candida albicans, ATCC90028; C. albicans; RPMI 1640, 24 h, 30 °C; read-out: MIC
# MIC per entry

The cases that follow already have their MIC on record.
| COMPOUND | PROPERTY NAME | RESULT |
| --- | --- | --- |
| CCCCCCCCCCNC(=O)C(CCCNC(=N)N)NC(=O)C(N)Cc1c[nH]c2ccccc12 (stereo not drawn) | MIC | 64 µg/mL |
| CCCCCCCCNC(=O)C(CCCNC(=N)N)NC(=O)C(N)Cc1ccccc1 (stereo not drawn) | MIC | > 256 µg/mL |
| CCCCCCCCCCNC(=O)C(CCCNC(=N)N)NC(=O)C(N)Cc1ccccc1 (stereo not drawn) | MIC | 128 µg/mL |
| CCCCCCCCCCCCCCNC(=O)C(CCCNC(=N)N)NC(=O)C(N)Cc1ccccc1 (stereo not drawn) | MIC | 16 µg/mL |
| CCCCCCCCCCCCNC(=O)C(N)Cc1ccccc1 (stereo not drawn) | MIC | 8 µg/mL |

# MIC lookup, item CCCCCCCCCCCC(=O)NC(CCCNC(=N)N)C(=O)OC (stereo not drawn) [C12AM]
32 µg/mL

# MIC lookup, item CCCCCCCCCCCCNC(=O)C(CCCNC(=N)N)NC(=O)C(N)Cc1c[nH]c2ccccc12 (stereo not drawn)
64 µg/mL

# MIC lookup, item CCCCCCCCCCCCCCNC(=O)C(CCCNC(=N)N)NC(=O)C(N)Cc1c[nH]c2ccccc12 (stereo not drawn)
16 µg/mL

# MIC lookup, item CCCCCCCCCCCCNC(=O)C(CCCNC(=N)N)NC(=O)C(N)Cc1ccccc1 (stereo not drawn)
32 µg/mL

###

test system: Candida parapsilosis ATCC 22019; assay: MIC broth microdilution; format: cell-based; conditions: Lodderomyces parapsilosis, ATCC22019; C. parapsilosis; value in parentheses; read-out: MIC
MIC vs 40 µM: less than gives class 1; not less than gives class 0.

| COMPOUND | CLASSIFICATION |
| --- | --- |
| CCCCCCCCCCCCCCNC(=O)C(CCCNC(=N)N)NC(=O)C(N)Cc1ccccc1 (centres unmarked) | class 1 |

Lab note: confirm whether the reported MIC for this compound is below 40 µM, equality not counting. compound: CCCCCCCCCCNC(=O)C(CCCNC(=N)N)NC(=O)C(N)Cc1ccccc1 (centres unmarked)
class 0

Lab note: confirm whether the reported MIC for this compound is below 40 µM, equality not counting. compound: CCCCCCCCCCCCCCNC(=O)C(CCCNC(=N)N)NC(=O)C(N)Cc1c[nH]c2ccccc12 (centres unmarked)
class 1

Lab note: confirm whether the reported MIC for this compound is below 40 µM, equality not counting. compound: CCCCCCCCCCCCNC(=O)C(N)Cc1ccccc1 (centres unmarked)
class 0

###

# Selectivity Index (HC50/MIC) per entry
tested on: Candida rugosa ATCC 10571; experiment: MIC broth microdilution; type: cell-based; details: C. rugosa; Table S1
// keep it numeric: no unit symbol after the value

The cases that follow already have their Selectivity Index (HC50/MIC) on record.
| COMPOUND | Selectivity Index (HC50/MIC) |
| --- | --- |
| CCCCCCCCCCCCNC(=O)C(CCCNC(=N)N)NC(=O)C(N)Cc1ccccc1 (stereo not shown) [PANHC12] | 0.4 |
| CCCCCCCCCCCC(=O)NC(CCCNC(=N)N)C(=O)OC (stereo not shown) [C12AM] | 1.7 |
| CCCCCCCCCCCCNC(=O)C(N)Cc1ccccc1 (stereo not shown) [PNHC12] | 0.6 |

# Selectivity Index (HC50/MIC) lookup, item CCCCCCCCCCCCNC(=O)C(CCCNC(=N)N)NC(=O)C(N)Cc1c[nH]c2ccccc12 (stereo not shown) [TANHC12]
3.8

###

assay: Surface tension, pendant drop tensiometer (cmc, γc); format: physicochemical; conditions: from surface tension
cmc vs 1 mM: less than gives Satisfied; not less than gives Not satisfied.

Some entries whose results are on file:
| COMPOUND | CLASSIFICATION |
| --- | --- |
| CCCCCCCCCCNC(=O)C(CCCNC(=N)N)NC(=O)C(N)Cc1ccccc1 (centres unmarked) [PANHC10] | Not satisfied |
| CCCCCCCCCCCCNC(=O)C(N)Cc1ccccc1 (centres unmarked) [PNHC12] | Not satisfied |

Lab note: confirm whether the reported cmc for this compound is below 1 mM, equality not counting. compound: CCCCCCCCCCCC(=O)NC(CCCNC(=N)N)C(=O)OC (centres unmarked) [C12AM]
Not satisfied

Lab note: confirm whether the reported cmc for this compound is below 1 mM, equality not counting. compound: CCCCCCCCCCNC(=O)C(CCCNC(=N)N)NC(=O)C(N)Cc1c[nH]c2ccccc12 (centres unmarked) [TANHC10]
Not satisfied

Lab note: confirm whether the reported cmc for this compound is below 1 mM, equality not counting. compound: CCCCCCCCCCCCCCNC(=O)C(CCCNC(=N)N)NC(=O)C(N)Cc1c[nH]c2ccccc12 (centres unmarked) [TANHC14]
Satisfied

###

system: erythrocytes; experiment: Hemolytic activity assay; type: cell-based; details: rabbit erythrocytes; value in parentheses
PROPERTY NAME: log10 HC50 (log10 of the value in µM)
The figures below represent log10 of HC50, where HC50 is stated in µM.

The cases that follow already have their log10 HC50 on record.
| COMPOUND | TESTED ON | log10 HC50 |
| --- | --- | --- |
| CCCCCCCCCCNC(=O)C(CCCNC(=N)N)NC(=O)C(N)Cc1c[nH]c2ccccc12 (centres unmarked) [TANHC10] | erythrocytes | 2.11 |
| CCCCCCCCCCCCNC(=O)C(CCCNC(=N)N)NC(=O)C(N)Cc1c[nH]c2ccccc12 (centres unmarked) [TANHC12] | erythrocytes | 1.43 |
| CCCCCCCCCCCC(=O)NC(CCCNC(=N)N)C(=O)OC (centres unmarked) [C12AM] | erythrocytes | 2.43 |
| CCCCCCCCCCCCNC(=O)C(CCCNC(=N)N)NC(=O)C(N)Cc1ccccc1 (centres unmarked) [PANHC12] | erythrocytes | 1.66 |
| CCCCCCCCCCCCCCNC(=O)C(CCCNC(=N)N)NC(=O)C(N)Cc1ccccc1 (centres unmarked) [PANHC14] | erythrocytes | 1.53 |
| CCCCCCCCCCNC(=O)C(CCCNC(=N)N)NC(=O)C(N)Cc1ccccc1 (centres unmarked) [PANHC10] | erythrocytes | 2.61 |
| CCCCCCCCCCCCNC(=O)C(N)Cc1ccccc1 (centres unmarked) [PNHC12] | erythrocytes | 1.74 |

# log10 HC50 lookup, item CCCCCCCCCCCCCCNC(=O)C(CCCNC(=N)N)NC(=O)C(N)Cc1c[nH]c2ccccc12 (centres unmarked) [TANHC14]
1.41

Measured values drawn from paper PMC12452389 for this set.
